# Test summary: Lipophilicity, log D of the compound at pH 7.4 by HPLC analysis
# Assay type: physicochemical
# Measurement conditions: buffer
Measured endpoint: logD

Take a look at these entries with their results.
Problem: Tell me measured logD for C#CCCCCOc1ccc2cc(-c3ccc(OC)cc3)c(=O)oc2c1 please.
Result: 4.3

Problem: Tell me measured logD for C#CCCCCOc1ccc2cc(C(=O)c3ccc(OC)cc3)c(=O)oc2c1 please.
Result: 3.5

(I) COC(=O)c1cc2ccc(OCc3cccc(F)c3)cc2oc1=O
(II) C#CCCCCOc1ccc2c(c1)NC(=O)CC2
Problem: In the pair I and II , the larger recorded logD belongs to which? Your answer should be the label attached to the chosen record.
Result: I
